As shown below, each of these molecules has a reported pKi value.
target: hOAT1 (SLC22A6) (Homo sapiens, UniProt Q4U2R8); assay: Inhibition of hOAT1-mediated [3H]PAH uptake, cell accumulation assay in CHO-hOAT1 cells; details: assuming competitive inhibition, 1 μM [3H]PAH, 1 min uptake, read-out: inhibition constant Ki for hOAT1
Sequence (Q4U2R8 1-550 isoform Q4U2R8-2): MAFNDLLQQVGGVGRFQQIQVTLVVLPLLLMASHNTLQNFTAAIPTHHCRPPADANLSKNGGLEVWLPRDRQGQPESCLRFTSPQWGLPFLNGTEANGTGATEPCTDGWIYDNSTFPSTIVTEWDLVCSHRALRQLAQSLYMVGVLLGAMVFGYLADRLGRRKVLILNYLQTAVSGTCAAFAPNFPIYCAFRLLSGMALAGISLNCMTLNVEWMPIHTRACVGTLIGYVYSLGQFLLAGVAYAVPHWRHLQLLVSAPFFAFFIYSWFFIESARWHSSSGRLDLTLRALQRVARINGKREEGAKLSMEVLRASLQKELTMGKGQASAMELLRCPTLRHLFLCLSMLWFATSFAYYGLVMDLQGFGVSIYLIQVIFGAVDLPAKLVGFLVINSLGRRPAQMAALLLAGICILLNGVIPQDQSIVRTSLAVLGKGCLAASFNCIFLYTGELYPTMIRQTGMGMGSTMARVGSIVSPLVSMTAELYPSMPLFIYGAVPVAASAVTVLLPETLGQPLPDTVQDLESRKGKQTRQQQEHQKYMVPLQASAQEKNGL
pKi: −log10 of the molar value.

# chem_smiles, pKi
data = [
    ("CC1(C)[C@@H](O)CC[C@]2(C)[C@H]3C(=O)C=C4[C@@H]5C[C@@](C)(C(=O)O)CC[C@]5(C)CC[C@@]4(C)[C@]3(C)CC[C@@H]12", 5.60),
    ("O=C(/C=C/c1ccc(O)c(O)c1)O[C@@H]1C[C@@](OC(=O)/C=C/c2ccc(O)c(O)c2)(C(=O)O)C[C@@H](O)[C@@H]1O", 5.96),
]

====

As shown below, each of these compounds has a reported inhibition at 50 µM value.
target: hOAT3 (SLC22A8) (Homo sapiens); construct: expressed in transfected cells; experiment: Inhibition of hOAT3-mediated [3H]ES uptake, cell accumulation assay in HEK-hOAT3 cells; type: cell-based; settings: 50 μM test compound, 1 μM [3H]ES (50-fold excess), 10 min uptake

# chem_smiles, study_system, inhibition at 50 µM, %
records = [
    ("CCCCCCC=CCCCCCCCCCc1cccc(O)c1C(=O)O", "hOAT3 (SLC22A8) (Homo sapiens)", 41),
    ("O=C(/C=C/c1ccc(O)c(O)c1)O[C@@H]1C[C@@](OC(=O)/C=C/c2ccc(O)c(O)c2)(C(=O)O)C[C@@H](O)[C@@H]1O", "hOAT3 (SLC22A8) (Homo sapiens)", 41),
]

====

target: hOAT4 (SLC22A11) (Homo sapiens, UniProt Q9NSA0); test: Inhibition of hOAT4-mediated [3H]ES uptake, cell accumulation assay in CHO-hOAT4 cells; conditions: inferred from level of inhibition at 50 μM; no kinetic study; read-out: IC50 on hOAT4 transport activity
Sequence (Q9NSA0 whole entry): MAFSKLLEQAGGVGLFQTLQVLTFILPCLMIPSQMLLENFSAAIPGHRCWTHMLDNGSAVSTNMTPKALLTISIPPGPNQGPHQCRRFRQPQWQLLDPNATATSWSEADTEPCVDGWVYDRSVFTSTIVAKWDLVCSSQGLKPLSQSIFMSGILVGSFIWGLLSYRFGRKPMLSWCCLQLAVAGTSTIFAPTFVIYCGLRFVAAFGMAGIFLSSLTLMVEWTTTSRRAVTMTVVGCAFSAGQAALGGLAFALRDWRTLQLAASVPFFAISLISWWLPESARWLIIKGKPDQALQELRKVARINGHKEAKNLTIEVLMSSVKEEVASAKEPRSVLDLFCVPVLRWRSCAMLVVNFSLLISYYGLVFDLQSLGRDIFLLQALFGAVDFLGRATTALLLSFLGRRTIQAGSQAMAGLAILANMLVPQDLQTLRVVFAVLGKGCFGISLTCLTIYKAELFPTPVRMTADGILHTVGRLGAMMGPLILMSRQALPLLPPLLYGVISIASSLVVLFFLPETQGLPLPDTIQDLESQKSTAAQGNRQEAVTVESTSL

# chem_smiles, IC50
rows = [
    ("Oc1cc(O)c2c(c1)O[C@H](c1ccc(O)c(O)c1)[C@@H](O)C2", "> 50 µM"),
]

====

molecular target: hOAT3 (SLC22A8) (Homo sapiens, UniProt Q8TCC7); construct: expressed in transfected cells; assay: Inhibition of hOAT3-mediated [3H]ES uptake, cell accumulation assay in HEK-hOAT3 cells; assay type: cell-based; conditions: 50 μM test compound, 1 μM [3H]ES (50-fold excess), 10 min uptake
Sequence (Q8TCC7 whole entry): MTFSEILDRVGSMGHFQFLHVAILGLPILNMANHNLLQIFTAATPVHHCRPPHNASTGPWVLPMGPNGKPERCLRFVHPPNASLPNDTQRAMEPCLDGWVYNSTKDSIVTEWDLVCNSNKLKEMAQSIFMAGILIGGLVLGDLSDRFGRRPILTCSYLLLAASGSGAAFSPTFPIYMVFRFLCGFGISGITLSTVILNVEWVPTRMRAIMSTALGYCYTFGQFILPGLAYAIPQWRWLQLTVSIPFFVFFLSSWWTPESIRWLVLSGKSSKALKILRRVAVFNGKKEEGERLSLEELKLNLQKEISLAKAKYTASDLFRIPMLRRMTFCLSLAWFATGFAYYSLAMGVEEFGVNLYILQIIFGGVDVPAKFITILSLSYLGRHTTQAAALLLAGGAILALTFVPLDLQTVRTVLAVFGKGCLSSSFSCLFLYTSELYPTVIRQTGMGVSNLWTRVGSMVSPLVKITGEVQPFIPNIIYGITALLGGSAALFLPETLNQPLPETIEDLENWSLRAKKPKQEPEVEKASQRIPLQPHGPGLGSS

# molecule, inhibition at 50 µM
measured = [
    ("Oc1cc(O)c2c(c1)O[C@H](c1ccc(O)c(O)c1)[C@H](O)C2 [Epicatechin]", "30 to 35%"),
    ("CCCCCCC=CCCCCCCCc1cccc(O)c1C(=O)O [ginkgolic acid (15 : 1)]", "30 to 35%"),
    ("O=C(C=Cc1ccc(O)c(O)c1)OC1CC(OC(=O)C=Cc2ccc(O)c(O)c2)(C(=O)O)CC(O)C1O (stereo not drawn) [1,5-Dicaffeoylquinic acid, 1,5-dicaffeoylquinic acid]", "30 to 35%"),
]

Data provenance is paper PMC3618943.
